We begin with a simple list: items and their reported Ki.
- Method: Inhibition of Plasmodium falciparum recombinant carbonic anhydrase
Give just the number in µM; leave the unit off.

Illustrative cases are given below, each with its answer.
>  <Compound Smiles>
Cn1nc(S(N)(=O)=O)s/c1=N/C(=O)c1c(F)c(F)c(F)c(F)c1F

>  <Data Value>
6.87

$$$$
>  <Compound Smiles>
NS(=O)(=O)c1ccc(NC(=O)c2ccc(S(N)(=O)=O)cc2)cc1

>  <Data Value>
3.05

$$$$

Proceeding to the next molecule to report its Ki.
[ask] Endpoint output: Ki of `NS(=O)(=O)c1ccc(NNC(=O)c2cc3ccccc3oc2=O)cc1` . Value?
[reply] 4.06

###

Reported pIC50 values follow for various compounds
- Test system: Plasmodium falciparum
- Method: Ex vivo inhibition of Plasmodium falciparum growth in cultured cells after 48hrs as [3H]hypoxanthine uptake
- Type: functional, organism-based
pIC50: −log10 of the molar value.

Guide cases for pIC50, answers given:
>  <Compound Smiles>
NS(=O)(=O)c1nnc(NC(=O)c2c(F)c(F)c(F)c(F)c2F)s1

>  <Data Value>
< 4.30

$$$$
>  <Compound Smiles>
COc1ccc2c(CC(=O)Nc3cccc(S(N)(=O)=O)c3)cc(=O)oc2c1

>  <Data Value>
< 4.30

$$$$
>  <Compound Smiles>
NS(=O)(=O)c1ccc(C/N=C/c2ccccc2Cl)cc1

>  <Data Value>
5.41

$$$$

[ask] Which pIC50 is listed for `NC(=S)Nc1ccc(S(N)(=O)=O)cc1` ?
[reply] < 4.30

[ask] Need pIC50 of `NS(=O)(=O)c1nnc(NC(=S)NC(=O)Nc2ccccc2)s1` , thanks.
[reply] < 4.30

[ask] Data request, read-out pIC50, for `NS(=O)(=O)c1ccc(CNC(=O)c2cc3ccccc3oc2=O)cc1`
[reply] < 4.30

###

- Test system: Plasmodium falciparum
- Method: Ex vivo inhibition of Plasmodium falciparum growth in cultured cells after 48hrs as [3H]hypoxanthine uptake
- Format: functional, organism-based
Quantity Name: IC50

Use the examples below as a reference point.
>  <Compound>
NS(=O)(=O)c1ccccc1NC(=O)c1cc2ccccc2oc1=O

>  <IC50>
> 50 µM

$$$$
>  <Compound>
COc1ccc2c(CC(=O)NNc3ccc(S(N)(=O)=O)cc3)cc(=O)oc2c1

>  <IC50>
> 50 µM

$$$$
>  <Compound>
COc1ccc2c(CC(=O)Nc3ccc(S(N)(=O)=O)cc3)cc(=O)oc2c1

>  <IC50>
> 50 µM

$$$$
>  <Compound>
CC(=O)Nc1nnc(S(N)(=O)=O)s1 [ACETAZOLAMIDE]

>  <IC50>
20 µM

$$$$

Would you kindly look at the next entry?
[ask] Find the recorded IC50 belonging to `NS(=O)(=O)c1nnc(NS(=O)(=O)C(F)(F)C(F)(F)C(F)(F)C(F)(F)C(F)(F)C(F)(F)C(F)(F)C(F)(F)F)s1` and report it.
[reply] > 50 µM

###

- Method: Inhibition of Plasmodium falciparum recombinant carbonic anhydrase
// thresholds for Ki classes: LOW: < 1 µM; MEDIUM: ≥ 1 µM and < 8 µM; HIGH: ≥ 8 µM

Recorded results for 4 compounds are shown here.
>  <Compound>
COc1ccc2c(CC(=O)Nc3cc(C(F)(F)F)c(S(N)(=O)=O)cc3S(N)(=O)=O)cc(=O)oc2c1

>  <Class>
MEDIUM

$$$$
>  <Compound>
NS(=O)(=O)c1ccccc1NC(=O)c1cc2ccccc2oc1=O

>  <Class>
HIGH

$$$$
>  <Compound>
COc1ccc2c(CC(=O)Nc3ccc(S(N)(=O)=O)cc3)cc(=O)oc2c1

>  <Class>
LOW

$$$$
>  <Compound>
COc1ccc2c(CC(=O)Nc3cccc(S(N)(=O)=O)c3)cc(=O)oc2c1

>  <Class>
MEDIUM

$$$$

[ask] Using the reported Ki, which band applies to `NS(=O)(=O)c1nnc(NS(=O)(=O)C(F)(F)C(F)(F)C(F)(F)C(F)(F)C(F)(F)C(F)(F)C(F)(F)C(F)(F)F)s1` ?
[reply] LOW

[ask] Pick a category. Item: `CCN(CC)C(=S)SNCc1ccc(S(N)(=O)=O)cc1`
[reply] HIGH

[ask] Pick a category. Item: `NS(=O)(=O)c1cc(S(N)(=O)=O)c(C(F)(F)F)cc1NC(=O)c1cc2ccccc2oc1=O`
[reply] HIGH

[ask] Returns: class label. Input: `NS(=O)(=O)c1nnc(NC(=O)c2c(F)c(F)c(F)c(F)c2F)s1`
[reply] MEDIUM

[ask] # classify by Ki band: CC(=O)Nc1nnc(S(N)(=O)=O)s1 [ACETAZOLAMIDE]
[reply] LOW

###

- Method: Inhibition of Plasmodium falciparum recombinant carbonic anhydrase
Attribute: log10 Ki
Would you kindly interpret these values as log10 of Ki expressed in µM?

Study these solved cases before continuing.
>  <Compound Smiles>
NS(=O)(=O)c1ccccc1NC(=O)N(c1ccccc1)c1ccccc1

>  <Data Value>
0.30

$$$$
>  <Compound Smiles>
COc1ccc2c(CC(=O)NNc3ccc(S(N)(=O)=O)cc3)cc(=O)oc2c1

>  <Data Value>
0.55

$$$$

[ask] If you can, please state the reported log10 Ki value of `NS(=O)(=O)c1ccc(CNC(=O)c2cc3ccccc3oc2=O)cc1` .
[reply] 0.70

[ask] Recorded log10 Ki of `NS(=O)(=O)c1ccc(CNC(=S)NC(=O)c2ccc(Cl)c(Cl)c2)cc1` , please.
[reply] -0.74

[ask] So what's the measured log10 Ki for this one? `NS(=O)(=O)c1ccc(CCNC(=O)c2cc3ccccc3oc2=O)cc1`
[reply] 1.12

[ask] Fill blank: measured log10 Ki of the compound `COc1ccc2c(CC(=O)Nc3ccccc3S(N)(=O)=O)cc(=O)oc2c1` is ____.
[reply] 0.16

[ask] What does the record list as log10 Ki for `NS(=O)(=O)c1ccc(/N=C/c2ccc3ccccc3c2Br)cc1` ?
[reply] 0.62

###

# Ki values compiled below
- Method: Inhibition of Plasmodium falciparum recombinant carbonic anhydrase
# number only, unit µM dropped from output

[ask] Value lookup for Ki; key = `NS(=O)(=O)c1ccc(CNC(=O)N(c2ccccc2)c2ccccc2)cc1`
[reply] 16

[ask] # query: Ki of entry `NS(=O)(=O)c1ccc(NC(=O)Nc2ccc(Cl)c(Cl)c2)cc1`
[reply] 5.58

[ask] I have this molecule here, `NC(=S)Nc1ccc(S(N)(=O)=O)cc1` , and I need its recorded Ki.
[reply] 2.1

[ask] Could you tell me which Ki is on file for `NS(=O)(=O)c1ccc(NS(=O)(=O)c2ccc(NC(=O)N(c3ccccc3)c3ccccc3)cc2)cc1` ?
[reply] 16.5

[ask] I would be grateful if you could share the reported Ki for `CCN(CC)C(=S)SNc1ccc(S(N)(=O)=O)cc1` .
[reply] 3

[ask] Query: Ki; subject: `NS(=O)(=O)c1ccc(NC(=O)c2cc3ccccc3oc2=O)cc1`
[reply] 5.82

###

- Method: Inhibition of Plasmodium falciparum recombinant carbonic anhydrase
Quantity Name: pKi
On this scale, pKi is minus log10 of a concentration expressed in M (mol/L).

Some molecules with recorded pKi:
>  <Compound Smiles>
NS(=O)(=O)c1ccc(C/N=C/c2ccccc2Cl)cc1

>  <Data Value>
6.60

$$$$
>  <Compound Smiles>
NS(=O)(=O)c1nnc(NC(=S)NC(=O)Nc2ccccc2)s1

>  <Data Value>
5.17

$$$$
>  <Compound Smiles>
NS(=O)(=O)c1ccccc1NS(=O)(=O)c1c(F)c(F)c(F)c(F)c1F

>  <Data Value>
5.51

$$$$
>  <Compound Smiles>
NS(=O)(=O)c1nnc(NS(=O)(=O)c2c(F)c(F)c(F)c(F)c2F)s1

>  <Data Value>
5.59

$$$$

Now take the following molecule into account.
[ask] What value of pKi has been recorded for this entry: `CC(=O)NS(=O)(=O)c1ccc(NC(=S)Nc2ccc(S(N)(=O)=O)cc2)cc1`
[reply] 5.34
